target: Isoform 2 of Nuclear receptor ROR-alpha (Alpha-2) (Homo sapiens, UniProt P35398); assay: activators of RORA nuclear receptor, dose response, cell-based, CHO-K1, Gal4-RORA LBD, luciferase luminescence (AID 681)
Sequence (P35398 as listed by the source): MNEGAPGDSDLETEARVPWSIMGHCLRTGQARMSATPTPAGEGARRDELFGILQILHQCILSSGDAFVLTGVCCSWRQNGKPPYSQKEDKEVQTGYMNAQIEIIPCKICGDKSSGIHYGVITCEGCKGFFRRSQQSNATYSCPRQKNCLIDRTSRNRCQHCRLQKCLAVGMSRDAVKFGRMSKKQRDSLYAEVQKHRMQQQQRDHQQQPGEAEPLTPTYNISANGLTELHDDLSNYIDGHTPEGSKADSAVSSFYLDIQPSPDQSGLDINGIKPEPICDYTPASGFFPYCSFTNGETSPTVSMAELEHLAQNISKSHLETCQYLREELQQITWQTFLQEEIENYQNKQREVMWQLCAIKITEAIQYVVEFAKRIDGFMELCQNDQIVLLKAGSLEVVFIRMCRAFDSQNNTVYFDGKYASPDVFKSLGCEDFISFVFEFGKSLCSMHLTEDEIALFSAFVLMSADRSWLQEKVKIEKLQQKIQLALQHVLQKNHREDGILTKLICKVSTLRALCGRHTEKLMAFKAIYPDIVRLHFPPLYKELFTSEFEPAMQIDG
Categorized via EC50: class A (below 0.8 µM), class B (0.8 µM to below 2 µM), class C (2 µM or more)

INSERT INTO assay_data (molecule, label_class) VALUES
  ('O=C(Nc1nnc(C23CC4CC(CC(C4)C2)C3)s1)c1ccco1', 'class A'),
  ('COc1ccccc1-c1nnc(NC(C)=O)s1', 'class B'),
  ('O=C(Nc1ccc(N2CCCCC2)cc1)c1cncc(Br)c1', 'class B'),
  ('Cc1ccc(-c2nc(C#N)c(NCc3ccco3)o2)cc1', 'class C'),
  ('CCOc1ccc(C=CC(C)N=O)cc1 (configuration not stated)', 'class A');

Query block: Category of CC(C)CNS(=O)(=O)c1ccc(C(=O)Nc2ccc3c(c2)OCCO3)cc1 :
Result block: class C

====

molecular target: Isoform 2 of Nuclear receptor ROR-alpha (Alpha-2) (Homo sapiens); test: activators of RORA nuclear receptor, dose response, cell-based, CHO-K1, Gal4-RORA LBD, luciferase luminescence (AID 681)
pEC50: −log10 of the molar value.
I would appreciate it if you labelled entries True when pEC50 is 6 or higher, otherwise False.

INSERT INTO measurements (compound, system, label_class) VALUES
  ('COc1ccc(Nc2oc(-c3ccccc3Cl)nc2C#N)cc1', 'Isoform 2 of Nuclear receptor ROR-alpha (Alpha-2) (Homo sapiens)', 'False'),
  ('CCOc1ccc(-c2nc(C#N)c(NC3CC3)o2)cc1', 'Isoform 2 of Nuclear receptor ROR-alpha (Alpha-2) (Homo sapiens)', 'True'),
  ('O=C1N(CCCN2C(=O)C3(OCCO3)c3ccccc32)c2ccccc2C12OCCO2', 'Isoform 2 of Nuclear receptor ROR-alpha (Alpha-2) (Homo sapiens)', 'False'),
  ('O=C(c1ccco1)N1CCN(c2ncnc3c(-c4ccccc4)nsc23)CC1', 'Isoform 2 of Nuclear receptor ROR-alpha (Alpha-2) (Homo sapiens)', 'False'),
  ('CCCCOC(=O)C(C)Oc1ccc(=O)n(-c2ccccc2)n1 (stereo not drawn)', 'Isoform 2 of Nuclear receptor ROR-alpha (Alpha-2) (Homo sapiens)', 'False'),
  ('Cc1cc(NC(=O)c2oc3ccccc3c2C)ccc1-n1cnnn1', 'Isoform 2 of Nuclear receptor ROR-alpha (Alpha-2) (Homo sapiens)', 'False');

Query block: Decide: pEC50 of Cc1nc(N=CN(C)C)sc1C(=O)Nc1ccccc1 [SMR000107046] >= 6?
Result block: False

Query block: Quick check, pEC50 >= 6? Nc1c(C(=O)NCCN2CCOCC2)c2nc3ccccc3nc2n1-c1ccc2c(c1)OCO2
Result block: False

Query block: Is pEC50 at least 6? Consider CCOC(=O)Nc1ccc2c(c1)Nc1ccccc1S2
Result block: False

Query block: Check this compound for pEC50 at or above 6: Clc1ccccc1OCCn1cnc2ccccc21
Result block: False

Query block: API: above_or_equal(metric=pEC50, cutoff=6) for item CCc1nnc2c3cnn(-c4ccccc4)c3ncn12 [MLS000080478]
Result block: False

====

EC50 overview
molecular target: Isoform 2 of Nuclear receptor ROR-alpha (Alpha-2) (Homo sapiens, UniProt P35398); experiment: activators of RORA nuclear receptor, dose response, cell-based, CHO-K1, Gal4-RORA LBD, luciferase luminescence (AID 681)

Observe how each entry below is paired with its result.
INSERT INTO measurements (smiles_entry, test_value) VALUES
  ('Cc1ccccc1Cn1ccc(NC(=O)c2onc(C)c2Cl)n1', '> 11 µM'),
  ('Cc1cc(N)c(NC2=CC(=O)CC(C)(C)C2)cc1C', '> 99 µM');

Now consider the entry below.
The measured EC50 associated with COc1ccc(C(=O)n2c(-c3ccco3)nc3ccccc32)cc1 reads 4 µM
